# Protocol Details: Aqueous solubility of the compound
# Assay type: physicochemical
# Settings: buffer
Peptide text beside a SMILES is read from it. * marks the point of attachment. Cbz = O=C(OCc1ccccc1)*; Acryloyl = C=CC(=O)*; OtBu = CC(C)(C)O*
Measure Name: solubility (µg/mL)

[
  {
    "Molecule": "C=CC(=O)NCCCC[C@H](NC(=O)OCc1ccccc1)C(=O)NCC(=O)OC(C)(C)C (Cbz-Lys(Acryloyl)-Gly-OtBu)",
    "Units Text": "µg/mL",
    "Reading": 1490
  }
]

----------
# Target: Protein-glutamine gamma-glutamyltransferase (Homo sapiens, UniProt P21980)
# Sequence (P21980 whole entry): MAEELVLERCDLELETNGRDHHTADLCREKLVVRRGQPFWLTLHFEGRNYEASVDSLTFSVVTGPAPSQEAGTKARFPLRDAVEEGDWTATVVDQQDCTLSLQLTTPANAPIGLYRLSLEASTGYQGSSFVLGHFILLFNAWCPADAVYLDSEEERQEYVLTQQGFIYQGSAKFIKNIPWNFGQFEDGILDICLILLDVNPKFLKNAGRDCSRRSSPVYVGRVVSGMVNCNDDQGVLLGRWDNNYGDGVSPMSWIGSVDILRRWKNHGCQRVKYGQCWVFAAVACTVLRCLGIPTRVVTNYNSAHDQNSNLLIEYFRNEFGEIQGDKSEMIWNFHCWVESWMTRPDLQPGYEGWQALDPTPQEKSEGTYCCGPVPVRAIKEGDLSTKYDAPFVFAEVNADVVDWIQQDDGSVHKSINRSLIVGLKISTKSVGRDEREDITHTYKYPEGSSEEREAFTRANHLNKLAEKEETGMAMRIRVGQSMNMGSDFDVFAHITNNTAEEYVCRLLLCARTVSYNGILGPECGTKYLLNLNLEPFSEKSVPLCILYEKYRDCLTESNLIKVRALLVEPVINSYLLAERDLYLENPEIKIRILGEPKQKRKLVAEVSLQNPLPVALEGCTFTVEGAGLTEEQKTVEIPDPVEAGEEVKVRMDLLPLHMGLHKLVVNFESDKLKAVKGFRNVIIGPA
# Protocol Details: Irreversible inhibition of transglutaminase 2
Labelling: IC50 reported below 600 nM becomes rule met; at or above becomes rule not met.

[
  {
    "Smi": "C=CC(=O)NCCCC[C@H](NC(=O)OCc1ccccc1)C(=O)N1Cc2ccccc2C1",
    "Class Name": "rule met"
  },
  {
    "Smi": "C=CC(=O)NCCCC[C@H](NC(=O)OCc1ccccc1)C(=O)N1CCC1",
    "Class Name": "rule not met"
  },
  {
    "Smi": "C=CC(=O)NCCCC[C@H](NC(=O)OCc1ccc(C)cc1)C(=O)O",
    "Class Name": "rule not met"
  },
  {
    "Smi": "C=CC(=O)NCCCC[C@H](NC(=O)OCc1ccccc1)C(=O)N1CCN(c2ccc3ccccc3c2)CC1",
    "Class Name": "rule met"
  }
]
